- assay.comment: ABTS free radical scavenging assay
- run.conditions: 150 µM, 5 min
readout.name: % of ABTS• reduction ± SD (%)
Numbers only, in %.

Sample records with % of ABTS• reduction ± SD:
# compound, unit.descriptor, % of ABTS• reduction ± SD
measured = [
    ("Cc1c(C)c2c(c(C)c1O)CCC(C)(C(=O)O)O2 (centres unmarked) [Trolox, reference compound]", "%", 100),
    ("O=S(=O)(c1ccccc1)n1ccc2c(OCCNCC3CCN(Cc4ccccc4)CC3)cccc21", "%", 20),
    ("O=S(=O)(c1ccccc1)N1CCc2c(OCCNCCCC3CCN(Cc4ccccc4)CC3)cccc21", "%", 10),
    ("O=S(=O)(c1ccccc1)n1ccc2c(OCCNCCCC3CCN(Cc4ccccc4)CC3)cccc21", "%", 20),
]

Now for the compound whose % of ABTS• reduction ± SD we want.
Please report the recorded % of ABTS• reduction ± SD for "O=S(=O)(c1ccccc1)N1CCc2c(OCCNCC3CCN(Cc4ccccc4)CC3)cccc21" .
19
